B1: TBX5 (parent)
chain: YQNHKITQLKIENNPFAKGFRGSD

# Variants of: B1
# assay-remarks: protein stability index of a GFP-peptide fusion (GPS, HEK-293T) (PSI 1-6); higher = more stable;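 further: lentivirally expressed fusions sorted by FACS into six bins by GFP to DsRed ratio, PSI derived from sequencing read proportions per bin multiplied by bin number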
# condition-set: c terminus: a fixed tail appended
endpoint: protein stability index

{"columns": ["mutation-key", "result-value"],
 "data": [
  ["T7H", 2.77],
  ["I6S", 3.04],
  ["Q2M", 2.61],
  ["A17N", 2.21],
  ["N14L", 2.52],
  ["I11Y", 2.83],
  ["N14A", 2.61],
  ["N3Y", 1.99],
  ["E12Q", 2.22],
  ["Q2P", 2.63],
  ["L9E", 3.09],
  ["S23Q", 2.71],
  ["A17S", 2.01],
  ["I11E", 3.23],
  ["N14D", 2.84],
  ["T7E", 3.32],
  ["L9M", 2.58],
  ["Q8W", 1.57],
  ["Q2C", 2.54],
  ["L9F", 2.26],
  ["G19M", 2.29],
  ["N3W", 1.89]
]}

The reported measurements were obtained from the supplement of paper PMC10567573.
